# Test target: T1, DR4G115 (HLA DPB4:01, peptide LCAP) (human)
# T1 construct: extracellular domain
# T1 sequence (P20036 29-222, chain 1 of 2): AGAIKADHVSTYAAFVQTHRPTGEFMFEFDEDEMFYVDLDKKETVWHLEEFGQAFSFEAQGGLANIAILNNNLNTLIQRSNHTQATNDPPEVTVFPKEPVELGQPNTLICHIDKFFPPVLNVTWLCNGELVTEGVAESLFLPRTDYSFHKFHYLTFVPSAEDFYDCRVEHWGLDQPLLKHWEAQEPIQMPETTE
# T1 sequence (P04440 30-225, chain 2 of 2, further chain): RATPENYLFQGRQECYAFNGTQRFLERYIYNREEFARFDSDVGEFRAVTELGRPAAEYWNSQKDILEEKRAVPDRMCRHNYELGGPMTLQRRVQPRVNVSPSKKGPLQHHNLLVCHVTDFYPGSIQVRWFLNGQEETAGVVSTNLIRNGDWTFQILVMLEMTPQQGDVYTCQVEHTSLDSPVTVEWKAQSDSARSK
# Assay name: MSD ECL; antigen coated; protocol of Example 3;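 further: antibody binding to plate-coated soluble HLA class II antigens carrying peptides fused at the beta-chain N-terminus, detected with a SulfoTag anti-human Kappa secondary antibody for 1 hour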
Readout label: ECL signal (ECL)
Give your result in ECL as a bare value.

Task: Quick one: ECL signal for DR4B4 (antibody, V domains shown, also called Lym-1 re-engineered as IgG2sigma) VH: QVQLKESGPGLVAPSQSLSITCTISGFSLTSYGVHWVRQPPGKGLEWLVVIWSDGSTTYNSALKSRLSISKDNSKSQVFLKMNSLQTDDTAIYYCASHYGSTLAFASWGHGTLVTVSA VL: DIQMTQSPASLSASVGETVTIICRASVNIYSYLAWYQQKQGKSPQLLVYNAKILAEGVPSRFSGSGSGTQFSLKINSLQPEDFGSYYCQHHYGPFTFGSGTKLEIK ?
Output: 57

Entry source: patent US20180355043A1
